B1: TRIM39 (parent)
chain: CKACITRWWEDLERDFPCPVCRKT

Variants of: B1
Test: protein stability index of a GFP-peptide fusion (GPS, HEK-293T) (PSI 1-6); higher = more stable;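 note: lentivirally expressed fusions sorted by FACS into six bins by GFP to DsRed ratio, PSI derived from sequencing read proportions per bin multiplied by bin number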
Conditions: c terminus: a fixed tail appended
Below, each entry is listed alongside its reported protein stability index.
Attribute measured: protein stability index

Chain: CKACITPWWEDLERDFPCPVCRKT
Observed value: 3.93
//
Chain: CKACITRYWEDLERDFPCPVCRKT
Observed value: 4.22
//
Chain: CKACITRQWEDLERDFPCPVCRKT
Observed value: 4.83
//
Chain: CKQCITRWWEDLERDFPCPVCRKT
Observed value: 4.06
//
Chain: CKACITRWWEDLERDFPCPVCEKT
Observed value: 4.37
//
Chain: CKACITRWWEDLERDFPCPVCRGT
Observed value: 3.38
//
Chain: CKACITRWWYDLERDFPCPVCRKT
Observed value: 3.24
//
Chain: CKADITRWWEDLERDFPCPVCRKT
Observed value: 1.75
//
Chain: CKACITRWWEDLERDFPCPKCRKT
Observed value: 4.19
//
Chain: CKACITRWWCDLERDFPCPVCRKT
Observed value: 3.64
//
Chain: CKACITRWWEDLERDFPRPVCRKT
Observed value: 2.02
//
Chain: CKACITRWWEDLERDFNCPVCRKT
Observed value: 4.27
//
Chain: CKACITRWWEDLERCFPCPVCRKT
Observed value: 2.09
//
Chain: CKACITRWWEDLERDFPCPQCRKT
Observed value: 4.09
//
Chain: CKACITRWWEDLERDFFCPVCRKT
Observed value: 4.25
//
Chain: CKACITTWWEDLERDFPCPVCRKT
Observed value: 4.07
//
Chain: CKACITRWWEDLERDFPWPVCRKT
Observed value: 1.11
//
Chain: CKACITRWWEALERDFPCPVCRKT
Observed value: 3.71
//
Chain: CKACITRMWEDLERDFPCPVCRKT
Observed value: 4.62
//
Chain: CKACITRWWEDLERDFPCMVCRKT
Observed value: 2.88
//
Chain: CKACITRWWEDLERDFPCPGCRKT
Observed value: 3.39
//
Chain: CKACITRWWEHLERDFPCPVCRKT
Observed value: 3.52
//
Chain: CKACITRWWEDLERDFPCPVCRNT
Observed value: 3.95
//
Chain: CKACITRWAEDLERDFPCPVCRKT
Observed value: 4.23
//
Chain: CKACITRWCEDLERDFPCPVCRKT
Observed value: 4.53
//
Chain: CEACITRWWEDLERDFPCPVCRKT
Observed value: 4.48
//
Chain: CKACITRWWEDLERDFPCPVCAKT
Observed value: 4.36
//
Chain: CKACITRWWEDLERDFPCPWCRKT
Observed value: 3.56
//
Chain: CKACITRWWEDLERDFPCPRCRKT
Observed value: 3.99
//
Chain: CKSCITRWWEDLERDFPCPVCRKT
Observed value: 4.21
//
Chain: CKACITRWWETLERDFPCPVCRKT
Observed value: 3.58
//
Chain: CKACITRWWEDLERFFPCPVCRKT
Observed value: 3.24
//
Chain: CKACITRWWEDLQRDFPCPVCRKT
Observed value: 3.94
//
Chain: CKACITRGWEDLERDFPCPVCRKT
Observed value: 4.8
//
Chain: CKACITRWWEDLERDFPCPVWRKT
Observed value: 2.18
//
Chain: CKAKITRWWEDLERDFPCPVCRKT
Observed value: 2.05
//
Chain: CKACITRWWEDLENDFPCPVCRKT
Observed value: 3.83
//
Chain: CKACITRWTEDLERDFPCPVCRKT
Observed value: 4.25
//
Chain: CKACITRWWEDLERDFACPVCRKT
Observed value: 3.55
//
Chain: HKACITRWWEDLERDFPCPVCRKT
Observed value: 2.16
//
Chain: CKACITRWWPDLERDFPCPVCRKT
Observed value: 3.72
//
Chain: CKACITRWWEDLERDFPKPVCRKT
Observed value: 1.38
//
Chain: CKLCITRWWEDLERDFPCPVCRKT
Observed value: 3.8
//
Chain: CKACITRWWELLERDFPCPVCRKT
Observed value: 3.57
//
Chain: CKACITRWWEDNERDFPCPVCRKT
Observed value: 4.24
//
Chain: CKACITRWWEDLERDFPLPVCRKT
Observed value: 2.41
//
Chain: CKAWITRWWEDLERDFPCPVCRKT
Observed value: 1.75
//
Chain: CDACITRWWEDLERDFPCPVCRKT
Observed value: 4.5
//
Chain: CKACITVWWEDLERDFPCPVCRKT
Observed value: 3.28
//
Chain: CKACITRCWEDLERDFPCPVCRKT
Observed value: 4.15
//
Chain: CKACITRWWEDLERDFPFPVCRKT
Observed value: 2.34
//
Chain: CKACITRWWEDHERDFPCPVCRKT
Observed value: 2.89
//
Chain: CKACITRWWQDLERDFPCPVCRKT
Observed value: 3.56
//
Chain: CKACITRWWERLERDFPCPVCRKT
Observed value: 3.4
//
Chain: CKACITRWWEDLERDFPCPVCWKT
Observed value: 2.53
//
Chain: CSACITRWWEDLERDFPCPVCRKT
Observed value: 4.59
//
Chain: CKACITRWWEDLSRDFPCPVCRKT
Observed value: 3.63
//
Chain: CHACITRWWEDLERDFPCPVCRKT
Observed value: 4.08
